- System: MDA-MB-231
- test method notes: Growth inhibition of human MDA-MB-231 cells after 5 days by SRB assay
- Format: functional
measure: GI50 (µM)

compound	target desc	GI50 [µM]
COc1ccc2c(c1)[C@]1(C[C@H]1c1ccc3c(/C=C/c4ccc(CN5CCOCC5)cc4)n[nH]c3c1)C(=O)N2 (racemic)	MDA-MB-231	14

(a) CN(C)Cc1ccc(/C=C/c2n[nH]c3cc([C@@H]4C[C@@]45C(=O)Nc4ccccc45)ccc23)cc1
(b) CN(C)Cc1ccc(/C=C/c2n[nH]c3cc([C@@H]4C[C@@]45C(=O)Nc4ccccc45)ccc23)cc1 (racemic)
Of the two listed items, which has the higher GI50? First: a Second: b Answer by stating the label of the chosen item. b

* * *

- test method notes: AUC(infinity) in Sprague-Dawley rat at 1 mg/kg, iv
- Type: ADME, organism-based
- Set-up: time infinity, dose 1 mg/kg, route intravenous
- test context: plasma
measure: AUC(0-inf) (ng·h/mL)

molecule	units symbol	test result
O=C1Nc2ccccc2[C@]12C[C@H]2c1ccc2c(/C=C/c3ccc(CN4CCOCC4)cc3)n[nH]c2c1	ng·h/mL	312
COc1ccc2c(c1)[C@]1(C[C@H]1c1ccc3c(/C=C/c4ccc(CN5CCOCC5)cc4)n[nH]c3c1)C(=O)N2C	ng·h/mL	553
C[C@@H]1CN(Cc2ccc(/C=C/c3n[nH]c4cc([C@@H]5C[C@@]56C(=O)Nc5ccccc56)ccc34)cc2)C[C@H](C)O1	ng·h/mL	1230
COc1ccc2c(c1)[C@]1(C[C@H]1c1ccc3c(/C=C/c4ccc(CN5CCOCC5)cc4)n[nH]c3c1)C(=O)N2	ng·h/mL	250
Cc1ccc2c(c1)[C@]1(C[C@H]1c1ccc3c(/C=C/c4ccc(CN5CCOCC5)cc4)n[nH]c3c1)C(=O)N2	ng·h/mL	285
COc1ccc2c(c1)[C@]1(C[C@H]1c1ccc3c(/C=C/c4ccc(CN5C[C@@H](C)O[C@@H](C)C5)cc4)n[nH]c3c1)C(=O)N2 [OCIFISERTIB]	ng·h/mL	534

* * *

- target desc: Serine/threonine-protein kinase PLK4 (Homo sapiens, UniProt O00444)
- Sequence (O00444 whole entry): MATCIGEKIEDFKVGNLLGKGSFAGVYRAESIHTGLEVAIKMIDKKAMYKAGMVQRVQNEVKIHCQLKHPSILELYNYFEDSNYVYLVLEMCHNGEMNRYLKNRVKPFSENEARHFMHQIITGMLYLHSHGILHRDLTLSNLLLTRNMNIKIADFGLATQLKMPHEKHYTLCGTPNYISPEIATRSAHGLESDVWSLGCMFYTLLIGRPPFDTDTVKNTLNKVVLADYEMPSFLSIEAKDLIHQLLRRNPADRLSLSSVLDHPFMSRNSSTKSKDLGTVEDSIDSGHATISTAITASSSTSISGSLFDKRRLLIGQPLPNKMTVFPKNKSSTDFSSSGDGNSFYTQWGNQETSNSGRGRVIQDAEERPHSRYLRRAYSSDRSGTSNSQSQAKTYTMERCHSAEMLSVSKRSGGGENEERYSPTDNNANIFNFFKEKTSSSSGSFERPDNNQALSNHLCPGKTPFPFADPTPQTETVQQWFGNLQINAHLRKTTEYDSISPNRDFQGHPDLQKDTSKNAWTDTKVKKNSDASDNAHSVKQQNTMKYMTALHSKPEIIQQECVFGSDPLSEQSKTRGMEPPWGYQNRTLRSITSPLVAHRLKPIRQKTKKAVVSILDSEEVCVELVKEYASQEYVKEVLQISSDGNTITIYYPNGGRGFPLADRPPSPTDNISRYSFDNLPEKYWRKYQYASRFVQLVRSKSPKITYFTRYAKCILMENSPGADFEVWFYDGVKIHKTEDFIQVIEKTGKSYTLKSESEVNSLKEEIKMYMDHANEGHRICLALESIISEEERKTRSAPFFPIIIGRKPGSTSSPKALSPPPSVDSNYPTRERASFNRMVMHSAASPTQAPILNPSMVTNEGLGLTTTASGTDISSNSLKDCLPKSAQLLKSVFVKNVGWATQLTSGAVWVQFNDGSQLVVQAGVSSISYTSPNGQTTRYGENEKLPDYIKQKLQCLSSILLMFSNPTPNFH
pIC50: −log10 of the molar value.
measure: pIC50

Here's what some known entries look like.
structure	target desc	measure	test result
O=C1Nc2ccccc2[C@]12C[C@H]2c1ccc2c(/C=C/c3ccc(CN4CC5CCC(C4)O5)cc3)n[nH]c2c1	Serine/threonine-protein kinase PLK4 (Homo sapiens, UniProt O00444)	pIC50	8.28
CN1CCN(c2ccc(/C=C/c3n[nH]c4cc([C@@H]5C[C@@]56C(=O)N(C)c5ccccc56)ccc34)cn2)CC1	Serine/threonine-protein kinase PLK4 (Homo sapiens, UniProt O00444)	pIC50	8.89
COc1ccc2c(c1)[C@]1(C[C@H]1c1ccc3c(/C=C/c4ccc(CN5C[C@@H](C)O[C@@H](C)C5)cc4)n[nH]c3c1)C(=O)N2C	Serine/threonine-protein kinase PLK4 (Homo sapiens, UniProt O00444)	pIC50	8.24

(I) C[C@@H]1CN(Cc2ccc(/C=C/c3n[nH]c4cc([C@@H]5C[C@@]56C(=O)Nc5ccccc56)ccc34)cc2)C[C@H](C)N1C
(II) COc1ccc2c(c1)[C@]1(C[C@H]1c1ccc3c(/C=C/c4ccc(CN5[C@H](C)CN(C)C[C@@H]5C)cc4)n[nH]c3c1)C(=O)N2
Of the two listed items, which has the higher pIC50? First: I Second: II Answer by stating the label of the chosen item. II

The origin of these recorded values is ChEMBL document CHEMBL3407349.
